We begin with a simple list: items and their reported pIC50.
Molecular target: human P2X3 receptor (Homo sapiens (Human), UniProt P56373)
Sequence (P56373 whole entry): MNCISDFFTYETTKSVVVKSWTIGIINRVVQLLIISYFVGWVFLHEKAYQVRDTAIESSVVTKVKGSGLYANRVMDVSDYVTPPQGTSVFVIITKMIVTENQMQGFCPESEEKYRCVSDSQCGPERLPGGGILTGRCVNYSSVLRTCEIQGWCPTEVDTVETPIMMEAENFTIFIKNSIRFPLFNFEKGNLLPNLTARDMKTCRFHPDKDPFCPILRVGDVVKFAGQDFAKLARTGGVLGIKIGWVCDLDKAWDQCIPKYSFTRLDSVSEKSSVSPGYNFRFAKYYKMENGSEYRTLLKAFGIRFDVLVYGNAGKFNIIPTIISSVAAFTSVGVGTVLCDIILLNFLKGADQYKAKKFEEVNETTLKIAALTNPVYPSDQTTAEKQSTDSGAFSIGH
Assay: P2X3 receptor inhibition, ATP-evoked Fluo-3 calcium fluorescence (FDSS 3000)
Settings: C6BU-1 cell transfected with human P2X3 receptor gene; ATP-evoked Fluo-3 fluorescence
pIC50: −log10 of the molar value.
metric: pIC50

# compound, numeric result
measured = [
    ("COc1ccccc1C1C(C(=O)C(C)C)=C(O)C(=O)N1c1ccc(-c2csnn2)cc1 (stereo not drawn) [Compound I-531]", 6.54),
    ("COC(=O)C(C)(C)CC(=O)C1=C(O)C(=O)N(c2ccc(-c3ccsc3)cc2)C1c1ccccc1OC (stereo not drawn) [Compound I-556]", 7.49),
    ("Cc1cc(-c2ccc(N3C(=O)C(O)=C(C(=O)C(C)C)C3c3ccccc3OC(F)F)cc2)cs1 (stereo not drawn) [Compound I-321]", 7.15),
    ("CCN(C)C(=O)c1ccccc1C1C(C(=O)C(C)C)=C(O)C(=O)N1c1ccc(-c2csc(C)c2)cc1 (stereo not drawn) [Compound I-494]", 7.28),
    ("COCCOc1ncccc1[C@H]1C(C(=O)C(C)C)=C(O)C(=O)N1c1ccc(-c2ccsc2)cc1 [Compound I-433]", 6.37),
    ("CC(C)(C)c1n[nH]c2c1C(c1ccccc1OCC#N)N(c1ccc(-c3ccsc3)cc1)C2=O (stereo not drawn) [II-173]", 8.40),
    ("COc1ccccc1C1c2c(C(C)C)n[nH]c2CN1C(=O)Nc1ccc(-c2ccsc2)cc1 (stereo not drawn) [II-189]", 6.05),
    ("CC(C)(C)c1n[nH]c2c1C(c1ccccc1OCc1nnn[nH]1)N(c1ccc(-c3ccsc3)cc1)C2=O (stereo not drawn) [II-174]", 8.52),
    ("COCCOc1ccccc1C1C(C(=O)C(C)C)=C(O)C(=O)N1c1ccc(-c2cscn2)cc1 (stereo not drawn) [Compound I-417]", 6.74),
    ("CSc1ccc(N2C(=O)C(O)=C(C(=O)CC(C)C)C2c2ccccc2OCC#N)cc1 (stereo not drawn) [Compound I-511]", 6.93),
    ("COc1ccc(C2(c3n[nH]c4c3C(c3ccccc3OC)N(c3ccc(-c5ccon5)cc3)C4=O)CC2)cc1 (stereo not drawn) [II-198]", 6.91),
    ("COCCOc1ccccc1C1C(S(=O)(=O)C(C)C)=C(O)C(=O)N1c1ccc(-c2ccsc2)cc1 (stereo not drawn) [Compound I-563]", 7.38),
    ("CC(C)(C)c1n[nH]c2c1C(c1ccccc1OCC(=O)O)N(c1ccc(-c3ccsc3)cc1)C2=O (stereo not drawn) [II-023]", 8.40),
    ("Cc1ccc(-c2ccc(N3C(=O)C(O)=C(C(=O)C(C)C)C3c3cccnc3OCCCO)cc2)o1 (stereo not drawn) [Compound I-478]", 7.47),
    ("CNC(=O)c1n[nH]c2c1C(c1ccccc1OC)N(c1ccc(-c3ccsc3)cc1)C2=O (stereo not drawn) [II-181]", 6.52),
    ("COc1ccccc1C1c2c(C(C)(C)CO)n[nH]c2C(=O)N1c1ccc(-c2cc(C)no2)cc1 (stereo not drawn) [II-136]", 7.26),
    ("CC(C)CC(=O)C1=C(O)C(=O)N(c2ccc(-c3ccoc3)cc2)C1c1ccccc1OC(F)F (stereo not drawn) [Compound I-342]", 7.17),
    ("COc1ccccc1C1C(C(=O)C(F)(F)F)=C(O)C(=O)N1c1ccc(-c2ccon2)cc1 (stereo not drawn) [Compound I-010]", 6.23),
    ("CC(C)CC(=O)C1=C(O)C(=O)N(c2ccc(-c3ccsc3)cc2)C1c1ccccc1OCCO (stereo not drawn) [Compound I-250]", 7.54),
    ("COCCOc1ccccc1C1C(C(=O)C(C)(C)C)=C(O)C(=O)N1c1ccc(-c2ccco2)cc1 (stereo not drawn) [Compound I-132]", 7.37),
    ("COc1ccccc1C1C(C(=O)C(C)(C)C)=C(O)C(=O)N1c1ccc(SC(F)(F)F)cc1 (stereo not drawn) [Compound I-047]", 6.66),
    ("COc1ccccc1C1C(C(=O)C(C)C)=C(O)C(=O)N1c1ccc(-c2ccc(C)s2)cc1 (stereo not drawn) [Compound I-259]", 7.52),
    ("CSc1ccc(N2C(=O)C(O)=C(C(=O)C(C)(C)C)C2c2cccnc2OCCO)cc1 (stereo not drawn) [Compound I-171]", 6.21),
    ("CC(C)(C)C(=O)C1=C(O)C(=O)N(c2ccc(-c3cccs3)cc2)C1c1cccc[n+]1[O-] (stereo not drawn) [Compound I-112]", 6.41),
    ("Cc1ccc(-c2ccc(N3C(=O)C(O)=C(C(=O)CC(C)C)C3c3cccnc3C(=O)NC(C)C)cc2)s1 (stereo not drawn) [Compound I-578]", 6.41),
    ("COCc1ccccc1C1C(C(=O)C2CCCC2)=C(O)C(=O)N1c1ccc(-c2ccsc2)cc1 (stereo not drawn) [Compound I-516]", 7.48),
    ("CC(C)(C)c1n[nH]c2c1C(c1ccccc1C(=O)O)N(c1ccc(-c3ccsc3)cc1)C2=O (stereo not drawn) [II-131]", 7.06),
    ("CC(C)C(=O)C1=C(O)C(=O)N(c2ccc(-c3ccco3)cc2)C1c1ccccc1OCCO (stereo not drawn) [Compound I-225]", 7.19),
    ("COCc1ccccc1C1C(C(=O)CC(C)C)=C(O)C(=O)N1c1ccc(SC)cc1 (stereo not drawn) [Compound I-437]", 6.95),
    ("COc1ccccc1C1C(C(=O)C2(CO)CCCCC2)=C(O)C(=O)N1c1ccc(-c2ccon2)cc1 (stereo not drawn) [Compound I-031]", 6.15),
]
